# System: canine glioma cells
# Assay notes: adherence (ADH50%) of canine glioma cells
# Type: cell-based
# Condition info: Canis lupus familiaris, Glioma cell, 96 h
Measurement kind: IC50 (nM)
Give the value in nM but do not write nM after it.

Consider the compound CC(C)OC(=O)C[C@H](O)C[C@@H](O)/C=C/c1c(C(C)C)nc(-c2ccccc2)n1-c1ccc(F)cc1 (relative stereo) [Compound IIe'] . State its measured IC50. 75

====

Give pIC50 for every item shown.
# Assay system: UniProtKB P51639
# Sequence (P51639 whole entry): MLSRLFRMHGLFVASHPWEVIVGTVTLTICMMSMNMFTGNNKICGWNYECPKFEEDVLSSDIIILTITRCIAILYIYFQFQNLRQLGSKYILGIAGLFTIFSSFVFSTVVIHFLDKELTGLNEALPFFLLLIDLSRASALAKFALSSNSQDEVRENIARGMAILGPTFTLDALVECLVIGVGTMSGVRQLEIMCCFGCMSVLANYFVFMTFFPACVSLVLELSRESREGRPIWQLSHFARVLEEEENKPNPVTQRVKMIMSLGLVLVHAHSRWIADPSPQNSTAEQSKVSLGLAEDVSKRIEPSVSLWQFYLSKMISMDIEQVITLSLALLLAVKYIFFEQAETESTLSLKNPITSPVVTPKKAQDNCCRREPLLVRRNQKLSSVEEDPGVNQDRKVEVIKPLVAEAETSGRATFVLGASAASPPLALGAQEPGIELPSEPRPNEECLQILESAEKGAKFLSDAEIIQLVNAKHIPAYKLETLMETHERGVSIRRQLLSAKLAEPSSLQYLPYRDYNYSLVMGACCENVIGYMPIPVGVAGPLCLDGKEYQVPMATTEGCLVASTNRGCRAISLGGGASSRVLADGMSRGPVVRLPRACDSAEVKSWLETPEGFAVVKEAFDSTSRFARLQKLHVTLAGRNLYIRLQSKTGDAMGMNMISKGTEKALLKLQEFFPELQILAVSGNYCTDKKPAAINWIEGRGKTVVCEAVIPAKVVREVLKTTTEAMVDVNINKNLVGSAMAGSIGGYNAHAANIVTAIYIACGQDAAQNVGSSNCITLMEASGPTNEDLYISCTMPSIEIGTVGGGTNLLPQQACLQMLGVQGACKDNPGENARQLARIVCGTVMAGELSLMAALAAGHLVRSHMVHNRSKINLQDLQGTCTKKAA
# Assay notes: inhibition of rat liver HMGCoA reductase activity
# Type: biochemical
# Set-up: from tissue; host or cells: rat liver
# Condition info: rat liver
Notebook: values listed as pIC50 are -log10 of the concentration (mol/L).

Consider the compound CC(C)OC(=O)C[C@H](O)C[C@H](O)/C=C/c1c(C(C)C)nc(-c2ccccc2)n1-c1ccc(F)cc1 [IId, reference compound] . State its measured pIC50. 8.70

Consider the compound CC(C)OC(=O)C[C@@H](O)C[C@@H](O)/C=C/c1c(C(C)C)nc(-c2ccccc2)n1-c1ccc(F)cc1 [IIa] . State its measured pIC50. 5.50

Consider the compound CC(C)OC(=O)C[C@@H](O)C[C@H](O)/C=C/c1c(C(C)C)nc(-c2ccccc2)n1-c1ccc(F)cc1 [IIb] . State its measured pIC50. 5.87
